Assay: chemical genetic growth profiling, strain panel (AID 1159580);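 note: tested at 20 µM; growth read once vehicle control cultures reached saturation at 30 °C; 1 = growth at the plate median or of vehicle wells; lower values mean less growth of the strain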
Details: S. cerevisiae deletion strains, growth OD, locus YAL040C, strain CLN3, active compounds read low
Screen size: about 5,500 compounds; about 2,000 (36%) were called active. Inconclusive results (about 18%) are left out. This is one part of the list.
# maps each entry to its normalized growth
Write the number on its own, no unit after it.

Some molecules with recorded normalized growth:
- O=C(CCCN1CCC(O)(c2ccc(Cl)cc2)CC1)c1ccc(F)cc1: 1.02
- CP(=O)(O)CCCN: 1
- Cc1c(OCC(F)(F)F)ccnc1CS(=O)c1nc2ccccc2[nH]1 (configuration not stated): 0.959
- Cc1ccc(OCC(O)C(C)NC(C)C)c2c1CCC2 (configuration not stated): 0.989
- COc1cccc(OC)c1OCCNCC1CSc2ccccc2O1 (configuration not stated): 1.01

-- ask Name the recorded normalized growth for NCCS(=O)O .
-- reply 0.998

-- ask Requested field: normalized growth. Item: CC(C)NCC(O)COc1ccc(CCOCC2CC2)cc1 (configuration not stated)
-- reply 1.05
